Just for reference, patent US20040024024A1 is where these values come from.

study_system: Human recombinant MMP-13 (Homo sapiens, UniProt P45452)
Construct: made in house; host or cells: baculovirus / insect cells
assay_info: In vitro MMP inhibition, IC50 determination (fluorogenic substrate I)
Type: biochemical
run_parameters: value outside parenthesis
metric_name: IC50 (nM)

Some solved cases for reference:
>  <molecular_string>
CN(C)c1c(F)cc(-c2noc(CCCOc3ccc(S(=O)(=O)C4(C(=O)NO)CCOCC4)cc3)n2)cc1F

>  <readout_number>
5.4

$$$$
>  <molecular_string>
Cc1cc(-c2cccc(CCOc3ccc(S(=O)(=O)C4(C(=O)NO)CCOCC4)cc3)c2)ccc1Cl

>  <readout_number>
29.8

$$$$
>  <molecular_string>
O=C(NO)C1(S(=O)(=O)c2ccc(OCCCc3cccc(-c4ccc(OC(F)(F)F)cc4)c3)cc2)CCOCC1

>  <readout_number>
28.3

$$$$
>  <molecular_string>
O=C(NO)C1(S(=O)(=O)c2ccc(OCCOc3cccc(-c4ccccc4)c3)cc2)CCOCC1

>  <readout_number>
3.5

$$$$

1 = O=C(NO)C1(S(=O)(=O)c2ccc(OCCCc3cccc(-c4ccc(F)c(F)c4)c3)cc2)CCOCC1
2 = COCCN1CCC(C(=O)NO)(S(=O)(=O)c2ccc(OCCCN3C(=O)[C@@H](C)N(c4ccccc4)C3=O)cc2)CC1
3 = O=C(CCCc1ccc(S(=O)(=O)C2(C(=O)NO)CCOCC2)cc1)c1cccc(-c2ccccc2)c1
Which order do these items take when sorted by rising IC50? List them. Your answer should be the labels, listed in the requested order.
3, 1, 2
